Data origin: patent US12258327B2

Biological target: EGFR wildtype (WT) (Homo sapiens, UniProt P00533)
Sequence (P00533 25-1210): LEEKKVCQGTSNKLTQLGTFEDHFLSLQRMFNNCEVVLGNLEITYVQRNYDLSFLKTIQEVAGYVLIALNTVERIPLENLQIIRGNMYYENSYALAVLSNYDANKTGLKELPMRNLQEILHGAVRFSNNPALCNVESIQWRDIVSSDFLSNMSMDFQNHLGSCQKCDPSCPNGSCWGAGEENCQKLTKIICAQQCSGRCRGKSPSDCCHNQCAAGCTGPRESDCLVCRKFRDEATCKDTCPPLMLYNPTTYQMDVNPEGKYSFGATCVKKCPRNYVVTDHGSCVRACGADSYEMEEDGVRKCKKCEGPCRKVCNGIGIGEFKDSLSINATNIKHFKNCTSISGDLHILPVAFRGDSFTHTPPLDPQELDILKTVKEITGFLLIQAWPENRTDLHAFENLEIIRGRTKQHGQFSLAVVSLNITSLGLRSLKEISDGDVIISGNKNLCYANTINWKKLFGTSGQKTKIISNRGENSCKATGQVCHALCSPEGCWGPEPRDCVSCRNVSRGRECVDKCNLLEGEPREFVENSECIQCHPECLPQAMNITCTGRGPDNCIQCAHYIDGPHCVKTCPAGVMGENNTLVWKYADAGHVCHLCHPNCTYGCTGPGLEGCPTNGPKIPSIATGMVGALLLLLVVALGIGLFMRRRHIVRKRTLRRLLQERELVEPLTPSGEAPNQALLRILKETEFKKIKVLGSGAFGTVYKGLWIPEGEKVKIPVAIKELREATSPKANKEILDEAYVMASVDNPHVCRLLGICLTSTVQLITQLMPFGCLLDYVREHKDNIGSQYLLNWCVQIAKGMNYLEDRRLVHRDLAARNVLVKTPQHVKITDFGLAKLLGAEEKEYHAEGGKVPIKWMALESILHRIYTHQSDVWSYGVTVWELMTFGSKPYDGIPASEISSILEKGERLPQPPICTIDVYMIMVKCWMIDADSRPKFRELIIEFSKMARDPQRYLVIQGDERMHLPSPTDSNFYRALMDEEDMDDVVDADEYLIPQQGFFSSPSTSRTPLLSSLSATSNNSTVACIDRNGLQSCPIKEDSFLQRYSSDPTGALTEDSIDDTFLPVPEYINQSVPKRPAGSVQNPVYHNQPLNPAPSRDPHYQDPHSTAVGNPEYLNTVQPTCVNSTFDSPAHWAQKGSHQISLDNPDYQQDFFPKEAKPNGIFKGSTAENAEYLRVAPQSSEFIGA
Assay: Biochemical EGFR kinase assay (Lance Ultra TR-FRET), wildtype
Settings: Km ATP; read-out: IC50 WT (nM) Km ATP
// assign yes if IC50 falls strictly below 6 nM, else no (ties count as no)

O=S(=O)(C1CC1)n1cc(-c2nccc(Nc3cc(N[C@H]4CC[C@@H](C(F)F)CC4)c(-c4ccn(C(F)F)n4)cn3)n2)cn1 [Example 157]: no

# input Please check: IC50 for C[C@]1(O)CC[C@@H](Nc2cc(Nc3ccnc(Nc4ccnn4CC(F)F)n3)ncc2-c2ccn(C(F)F)n2)CC1 [Example 155] , strictly under 6 nM or not?
# output no

# input Hello, is IC50 of the following compound strictly smaller than 6 nM? O=S(=O)(C1CC1)n1cc(-c2nccc(Nc3cc(N[C@H]4CC[C@@H](NCCF)CC4)c(-c4nc(C(F)F)cs4)cn3)n2)cn1 [Example 123]
# output no

# input Given CN(C)CC1(C)CCC(Nc2cc(Nc3ccnc(-c4cnn(S(=O)(=O)C5CC5)c4)n3)ncc2-c2ccn(C)n2)CC1 (stereo not drawn) [Example 238] , is recorded IC50 strictly lower than 6 nM?
# output no

# input hey, is IC50 for CN(C)C[C@H]1CC[C@@H](Nc2cc(Nc3ccnc(-c4cnn(S(=O)(=O)C5CC5)c4)n3)ncc2-c2cc(C(F)(F)F)n(C)n2)CC1 [Example 256] lower than 6 nM or not?
# output yes

---

The compounds listed here are annotated with their log10 of IC50.
Target: EGFR del19/C797S (Homo sapiens, UniProt P00533, C797S/DEL746-750)
Sequence (P00533 with tags, fused parts or gaps DEL746-750/C797S): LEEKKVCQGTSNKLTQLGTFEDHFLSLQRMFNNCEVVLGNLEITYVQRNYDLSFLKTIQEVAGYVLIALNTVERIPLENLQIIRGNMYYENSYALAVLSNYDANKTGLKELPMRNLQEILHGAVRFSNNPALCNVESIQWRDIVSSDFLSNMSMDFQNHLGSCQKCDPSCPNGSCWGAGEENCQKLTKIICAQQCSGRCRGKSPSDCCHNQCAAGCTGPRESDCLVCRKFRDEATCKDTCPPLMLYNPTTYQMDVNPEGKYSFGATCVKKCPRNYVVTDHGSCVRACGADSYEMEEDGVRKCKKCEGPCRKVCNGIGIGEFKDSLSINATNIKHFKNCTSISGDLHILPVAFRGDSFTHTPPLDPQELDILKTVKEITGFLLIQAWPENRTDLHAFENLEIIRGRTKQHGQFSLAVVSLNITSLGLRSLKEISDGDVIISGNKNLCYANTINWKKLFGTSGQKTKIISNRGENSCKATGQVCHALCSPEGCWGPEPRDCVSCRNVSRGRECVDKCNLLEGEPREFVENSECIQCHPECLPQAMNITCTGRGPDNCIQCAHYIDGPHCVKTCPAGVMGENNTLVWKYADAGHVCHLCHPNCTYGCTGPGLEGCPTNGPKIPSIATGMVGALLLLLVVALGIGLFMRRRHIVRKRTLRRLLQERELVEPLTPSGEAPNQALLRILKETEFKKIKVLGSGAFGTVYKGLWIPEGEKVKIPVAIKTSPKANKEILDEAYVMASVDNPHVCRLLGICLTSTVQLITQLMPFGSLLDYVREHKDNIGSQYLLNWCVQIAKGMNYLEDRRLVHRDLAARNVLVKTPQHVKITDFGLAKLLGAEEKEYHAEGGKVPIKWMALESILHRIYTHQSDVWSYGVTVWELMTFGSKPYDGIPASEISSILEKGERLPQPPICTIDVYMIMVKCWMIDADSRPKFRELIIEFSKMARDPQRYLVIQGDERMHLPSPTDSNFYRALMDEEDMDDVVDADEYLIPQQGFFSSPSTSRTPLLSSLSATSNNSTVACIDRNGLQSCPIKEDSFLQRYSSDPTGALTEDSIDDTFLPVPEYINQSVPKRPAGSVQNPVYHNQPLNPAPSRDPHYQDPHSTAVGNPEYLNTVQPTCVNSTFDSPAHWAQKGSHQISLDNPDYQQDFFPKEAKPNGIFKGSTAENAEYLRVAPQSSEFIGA
Assay: Biochemical EGFR kinase assay (Lance Ultra TR-FRET), double mutant del19/C797S
Details: IC50 del19/C797S (nM) 100 μM ATP, 100 μM ATP
Please keep in mind that the values are log10 of IC50 expressed in nM.

Cn1nc(-c2cnc(Nc3ccnc(-c4cnn(S(=O)(=O)C5CC5)c4)n3)cc2N[C@H]2CC[C@@H](CN3CCC3)CC2)cc1C(F)(F)F [Example 264]: -0.05
Cn1cc(-c2nccc(Nc3cc(N[C@H]4CC[C@@](C)(O)CC4)c(-c4ccn(C(F)F)n4)cn3)n2)cn1 [Example 139]: 2.00
Cn1ccc(-c2cnc(Nc3ccnc(-c4cnn(S(=O)(=O)C5CC5)c4)n3)cc2N[C@H]2CC[C@]3(CCC(=O)N3)CC2)n1 [Example 44]: -0.70
C[C@]1(O)CC[C@@H](Nc2cc(Nc3ccnc(-c4cnn(S(=O)(=O)C5CC5)c4)n3)ncc2-c2cn3c(n2)CCC3)CC1 [Example 274]: -0.30
CN(C)C[C@H]1CC[C@@H](Nc2cc(Nc3ccnc(-c4cnn(S(=O)(=O)C5CC5)c4)n3)ncc2-c2ccn(C)n2)CC1 [Example 226]: -0.70

# input Return reported log10 of IC50; argument: CN[C@H]1CC[C@@H](Nc2cc(Nc3ccnc(-c4cnn(S(=O)(=O)C5CC5)c4)n3)ncc2-c2ccco2)CC1 [Example 87]
# output 0.84

---

Target: EGFR del19/C797S (Homo sapiens, UniProt P00533, C797S/DEL746-750)
Test: Biochemical EGFR kinase assay (Lance Ultra TR-FRET), double mutant del19/C797S
Settings: Km ATP; read-out: IC50 del19/C797S (nM) Km ATP
Binarize IC50 at 1 nM; below is T, at or above is F.

Cn1ccc(-c2cnc(Nc3ccnc(-c4cnn(S(=O)(=O)C5CC5)c4)n3)cc2NC2CCC(F)(CO)CC2)n1 (stereo not drawn): F
O=S(=O)(C1CC1)n1cc(-c2nccc(Nc3cc(NC4CCC(O)(C5CC5)CC4)c(-c4ccn(C(F)F)n4)cn3)n2)cn1 (stereo not drawn): F
O=S(=O)(C1CC1)n1cc(-c2nccc(Nc3cc(NC4CCC(F)(CO)CC4)c(-c4cc5n(n4)CCCC5)cn3)n2)cn1 (stereo not drawn): F
CO[C@H]1CCN(c2nccc(Nc3cc(N[C@H]4CC[C@@](C)(O)CC4)c(-c4ccn(C(F)F)n4)cn3)n2)C[C@H]1F: F
O=S(=O)(C1CC1)n1cc(-c2nccc(Nc3cc(NC[C@H]4C[C@@H](O)C4)c(-c4ccn(C(F)F)n4)cn3)n2)cn1: F

Shift focus to the following entry.
# input State whether 1 nM exceeds IC50 recorded for Cn1ccc(-c2cnc(Nc3ccnc(-c4cnn(S(=O)(=O)C5CC5)c4)n3)cc2NC[C@H]2CC[C@](C)(O)CC2)n1 .
# output T

---

As shown below, each of these molecules has a reported log10(IC50) value.
Molecular target: EGFR del19/C797S (Homo sapiens, UniProt P00533, C797S/DEL746-750)
Test: Biochemical EGFR kinase assay (Lance Ultra TR-FRET), double mutant del19/C797S
Conditions: Km ATP; read-out: IC50 del19/C797S (nM) Km ATP
Base-10 log of IC50, unit nM.

Here's what some known entries look like.
CC(C)Nc1cc(Nc2ccnc(-c3cnn(S(=O)(=O)C4CC4)c3)n2)ncc1-c1ccn(CC(F)F)n1: 1.17
COCn1ccc(-c2cnc(Nc3ccnc(-c4cnn(S(=O)(=O)C5CC5)c4)n3)cc2N[C@H]2CC[C@@](C)(O)CC2)n1: 0.00
CCS(=O)(=O)n1ccc(-c2nccc(Nc3cc(N[C@H]4CC[C@@](C)(O)CC4)c(-c4ccn(C(F)F)n4)cn3)n2)n1: 2.66

# input Form field: log10(IC50) recorded for Cn1ccc(-c2cnc(Nc3ccnc(-c4cnn(S(=O)(=O)C5CC5)c4)n3)cc2N[C@H]2CC[C@@H](NCCF)CC2)n1 with EGFR del19/C797S (Homo sapiens, UniProt P00533, C797S/DEL746-750) (enter value)
# output -0.15

# input GET /values?readout=log10(IC50)&system=EGFR del19/C797S (Homo sapiens, UniProt P00533, C797S/DEL746-750)&item= CC1(O)CCC(Nc2cc(Nc3ccnc(-c4cnn(C5CCCCO5)c4)n3)ncc2-c2ccn(C(F)F)n2)CC1 (stereo not shown)
# output 2.12

# input Give recorded log10(IC50) with EGFR del19/C797S (Homo sapiens, UniProt P00533, C797S/DEL746-750) for the following molecule: CC(C)Nc1cc(Nc2ccnc(-c3cnn(S(=O)(=O)C4CC4)c3)n2)ncc1-c1ccn(C(F)F)n1
# output 1.38

# input Find log10(IC50) (EGFR del19/C797S (Homo sapiens, UniProt P00533, C797S/DEL746-750)) for the entry CN(C)C(=O)C[C@H]1CC[C@@H](Nc2cc(Nc3ccnc(-c4cnn(S(=O)(=O)C5CC5)c4)n3)ncc2-c2ccn(C(F)F)n2)CC1
# output -0.22

---

Catalogue of IC50 values
Molecular target: EGFR del19/T790M/C797S (Homo sapiens, UniProt P00533, C797S/DEL746-750/T790M)
Sequence (P00533 with tags, fused parts or gaps DEL746-750/T790M/C797S): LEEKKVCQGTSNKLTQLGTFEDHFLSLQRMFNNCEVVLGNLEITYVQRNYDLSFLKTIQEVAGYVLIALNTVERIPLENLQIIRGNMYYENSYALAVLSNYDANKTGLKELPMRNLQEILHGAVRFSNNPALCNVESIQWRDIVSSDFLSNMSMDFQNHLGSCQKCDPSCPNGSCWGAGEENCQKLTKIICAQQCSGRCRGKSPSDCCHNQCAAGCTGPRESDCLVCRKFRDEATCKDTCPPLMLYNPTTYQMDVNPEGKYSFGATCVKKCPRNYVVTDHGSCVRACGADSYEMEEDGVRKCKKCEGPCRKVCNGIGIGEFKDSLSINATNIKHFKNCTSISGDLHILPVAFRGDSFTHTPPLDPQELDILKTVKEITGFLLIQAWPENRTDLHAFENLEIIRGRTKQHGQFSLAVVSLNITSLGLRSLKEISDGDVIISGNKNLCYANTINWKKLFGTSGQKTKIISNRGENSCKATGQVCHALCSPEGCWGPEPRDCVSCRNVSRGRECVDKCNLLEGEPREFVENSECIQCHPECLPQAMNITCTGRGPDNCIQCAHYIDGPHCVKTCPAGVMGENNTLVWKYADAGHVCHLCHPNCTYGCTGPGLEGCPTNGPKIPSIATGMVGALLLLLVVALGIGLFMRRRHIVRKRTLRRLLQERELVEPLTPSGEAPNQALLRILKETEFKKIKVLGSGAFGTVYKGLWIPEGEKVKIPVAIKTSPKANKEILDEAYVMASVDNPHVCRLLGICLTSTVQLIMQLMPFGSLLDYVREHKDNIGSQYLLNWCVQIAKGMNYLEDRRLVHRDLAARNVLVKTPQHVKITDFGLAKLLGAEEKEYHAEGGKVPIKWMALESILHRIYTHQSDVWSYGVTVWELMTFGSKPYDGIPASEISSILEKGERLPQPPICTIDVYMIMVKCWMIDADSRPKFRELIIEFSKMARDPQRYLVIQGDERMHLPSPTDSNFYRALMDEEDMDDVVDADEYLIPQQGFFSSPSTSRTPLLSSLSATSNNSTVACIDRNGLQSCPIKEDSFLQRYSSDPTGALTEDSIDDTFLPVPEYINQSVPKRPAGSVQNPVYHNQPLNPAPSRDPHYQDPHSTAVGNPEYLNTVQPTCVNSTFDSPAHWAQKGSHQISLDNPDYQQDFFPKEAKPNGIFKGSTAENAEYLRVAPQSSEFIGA
Experiment: Biochemical EGFR kinase assay (Lance Ultra TR-FRET), triple mutant del19/T790M/C797S
Details: IC50 del19/T790M/C797S (nM) 100 μM ATP, 100 μM ATP
Please state the figure in nM; there is no need to write the unit.

Some solved cases for reference:
Cn1ccc(-c2cnc(Nc3ccnc(-c4cnn(S(=O)(=O)C5CC5)c4)n3)cc2NC[C@H]2C[C@H](CO)C2)n1 [Example 223]: 0.2
O=S(=O)(C1CC1)n1cc(-c2nccc(Nc3cc(NC[C@H]4C[C@H](CO)C4)c(-c4ccn(C(F)F)n4)cn3)n2)cn1 [Example 189]: 0.4

# input Reported IC50, compound C[C@]1(O)CC[C@@H](Nc2cc(Nc3ccnc(-c4cnn(S(=O)(=O)C5CC5)c4)n3)ncc2-c2cn3c(n2)CCC3)CC1 [Example 274] : ____
# output 0.5

# input I am curious: what IC50 value has been reported for O=S(=O)(C1CC1)n1cc(-c2nccc(Nc3cc(N[C@H]4CC[C@@H](O)CC4)c(-c4ccco4)cn3)n2)cn1 [Example 83] ?
# output 0.6

# input // returns reported IC50 for input C[C@]1(O)CC[C@@H](Nc2cc(Nc3ccnc(-c4cnn(S(=O)(=O)C5CC5)c4)n3)ncc2-c2ccn(CC(F)F)n2)CC1 [Example 241]
# output 0.6

# input Form field: reported IC50 of CN(C)C(=O)C[C@H]1CC[C@@H](Nc2cc(Nc3ccnc(-c4cnn(S(=O)(=O)C5CC5)c4)n3)ncc2-c2ccn(C(F)F)n2)CC1 [Example 205]
# output 0.6

---

Molecular target: EGFR del19/C797S (Homo sapiens, UniProt P00533, C797S/DEL746-750)
Experiment: Biochemical EGFR kinase assay (Lance Ultra TR-FRET), double mutant del19/C797S
Details: Km ATP; read-out: IC50 del19/C797S (nM) Km ATP
MEASURE NAME: IC50 (nM)
Please state the figure in nM; there is no need to write the unit.

Cn1ccc(-c2cnc(Nc3ccnc(-c4cnn(S(=O)(=O)C5CC5)c4)n3)cc2NCC2(C)CCC(O)CC2)n1 (centres unmarked): 16.9

# input # query: IC50 of entry CC(=O)N1CC=C(c2nccc(Nc3cc(N[C@H]4CC[C@@](C)(O)CC4)c(-c4ccn(C(F)F)n4)cn3)n2)CC1
# output 2050

# input Can you look up the measured IC50 of O=C1NCCCC1Nc1cc(Nc2ccnc(-c3cnn(S(=O)(=O)C4CC4)c3)n2)ncc1-c1ccn(C(F)F)n1 (centres unmarked) for me?
# output 23.7

# input Requested read-out: IC50. Entry: CN[C@H]1CC[C@@H](Oc2cc(Nc3ccnc(-c4cnn(S(=O)(=O)C5CC5)c4)n3)ncc2-c2ccn(C(F)F)n2)CC1
# output 33.5

# input Item under review: CC(C)(O)[C@H]1CC[C@@H](Nc2cc(Nc3ccnc(-c4cnn(S(=O)(=O)C5CC5)c4)n3)ncc2-c2ccn(CC(F)F)n2)CC1 . Reported IC50?
# output 1.7

# input // lookup IC50 for C[C@]1(O)CC[C@@H](Nc2cc(Nc3nc(-c4cnn(S(=O)(=O)C5CC5)c4)ncc3F)ncc2-c2ccn(C(F)F)n2)CC1
# output 6
